Cited source for all entries: paper PMC9402538

Biological target: T1, APC (303-739) (UniProt P25054 303-739)
T1 construct: adenomatous polyposis coli (APC), residues 303-739; pET28a construct; also called APC WT; adenomatous polyposis coli; source: E. coli BL21 (DE3), purified (Ni-NTA)
T1 sequence (looked up): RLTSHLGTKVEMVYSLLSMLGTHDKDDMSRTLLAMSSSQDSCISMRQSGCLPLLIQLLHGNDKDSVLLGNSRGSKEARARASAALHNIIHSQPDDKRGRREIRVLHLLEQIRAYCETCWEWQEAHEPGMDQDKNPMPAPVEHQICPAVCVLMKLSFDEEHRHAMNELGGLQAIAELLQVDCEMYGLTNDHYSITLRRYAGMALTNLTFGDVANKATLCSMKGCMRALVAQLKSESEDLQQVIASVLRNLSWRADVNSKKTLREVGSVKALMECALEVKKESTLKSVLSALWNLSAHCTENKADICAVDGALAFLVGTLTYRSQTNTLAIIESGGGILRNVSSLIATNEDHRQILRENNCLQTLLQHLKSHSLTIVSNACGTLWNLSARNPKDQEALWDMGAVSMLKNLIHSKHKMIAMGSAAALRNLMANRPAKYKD
Experiment: fluorescence polarisation; competition with tracer 1: APC (303-739) 1.0 μM and tracer 1 20 nM (Table 2), serial dilution of peptide
Settings: both partners purified
[ ]: non-standard residue; d: D form. The star is where a group is joined. Phe(4-tBu) = CC(C)(C)c1ccc(C[C@H](N)C(=O)O)cc1; Bpa = N[C@@H](Cc1ccc(C(=O)c2ccccc2)cc1)C(=O)O; hLeu = CC(C)CC[C@H](N)C(=O)O; 2Furoyl = O=C(c1ccco1)*; Cbz = O=C(OCc1ccccc1)*; Bz = O=C(c1ccccc1)*
Please provide measured pIC50 for the entries that follow.
As a rule, pIC50 stands for the negative log10 of the concentration, concentration in M.

Req: Tell me its pIC50 given Cbz-AGES[hLeu]YE-NH2 [MAI-426] as the entry.
Resp: 6.08

Req: Tell me its pIC50 given Bz-AGESLY[dE]-NH2 [MAI-465] as the entry.
Resp: 6.12

Req: Tell me its pIC50 given {furan‑2‑carbonyl}-AGESLY[Bpa]-NH2 [MAI-454] as the entry.
Resp: 6.32

Req: Tell me its pIC50 given 2Furoyl-AGESLY[Phe(4-tBu)]-NH2 (SMILES CC(C)C[C@H](NC(=O)[C@H](CO)NC(=O)[C@H](CCC(=O)O)NC(=O)CNC(=O)[C@H](C)NC(=O)c1ccco1)C(=O)N[C@@H](Cc1ccc(O)cc1)C(=O)N[C@@H](Cc1ccc(C(C)(C)C)cc1)C(N)=O) [MAI-466] as the entry.
Resp: 6.09
